# assay.comment: Mouse PK studies after oral and IV dosing
# Assay type: in vivo
# experimental.parameters: in vivo, iv, 2 mg/kg, IV, dose 2 mg/kg, read-out: IV T1/2 (converted)

>  <molecule>
C[C@H]1CC2(CCN(c3ccc(C(=O)N4CCC(N5Cc6cc7c(cc6C5)C(=O)N(C5CCC(=O)NC5=O)C7=O)CC4)cc3)CC2)CN1c1ccc(C#N)c(Cl)c1 (stereo partly shown)

>  <half-life / h>
4.34

$$$$

###

# assay.comment: Mouse PK studies after oral and IV dosing
# Format: in vivo
# experimental.parameters: in vivo, po, 3 mg/kg
Category scheme (Cmax): class 0 (below 200 ng/mL), class 1 (200 ng/mL to below 700 ng/mL), class 2 (700 ng/mL or more)

>  <compound>
C[C@H]1CC2(CCN(c3cnc(C(=O)N4CCC(CN5CCN(c6cc7c(cc6F)C(=O)N(C6CCC(=O)NC6=O)C7=O)CC5)CC4)cn3)CC2)CN1c1ccc(C#N)c(Cl)c1 (stereo partly shown) [Cpd. No. 493]

>  <category.label>
class 1

$$$$
>  <compound>
C[C@H]1CC2(CCN(c3ccc(C(=O)N4CCN(CC5CN(c6cc7c(cc6F)C(=O)N(C6CCC(=O)NC6=O)C7=O)C5)CC4)nn3)CC2)CN1c1ccc(C#N)c(Cl)c1 (stereo partly shown) [Cpd. No. 485]

>  <category.label>
class 2

$$$$
>  <compound>
C[C@H]1CC2(CCN(c3ccc(C(=O)N4CCN(C5CN(c6cc7c(cc6F)C(=O)N(C6CCC(=O)NC6=O)C7=O)C5)CC4)cc3)CC2)CN1c1ccc(C#N)c(Cl)c1 (stereo partly shown) [Cpd. No. 344]

>  <category.label>
class 2

$$$$
>  <compound>
C[C@H]1CC2(CCN(c3ccc(C(=O)N4CCN(C5CCN(c6cc7c(cc6F)C(=O)N(C6CCC(=O)NC6=O)C7=O)CC5)CC4)cc3)CC2)CN1c1ccc(C#N)c(Cl)c1 (stereo partly shown) [Cpd. No. 540]

>  <category.label>
class 2

$$$$
>  <compound>
C[C@H]1CC2(CCN(c3cnc(C(=O)N4CCN(CC5CN(c6cc7c(cc6F)C(=O)N(C6CCC(=O)NC6=O)C7=O)C5)CC4)cn3)CC2)CN1c1ccc(C#N)c(Cl)c1 (stereo partly shown) [Cpd. No. 488]

>  <category.label>
class 0

$$$$
>  <compound>
C[C@H]1CC2(CCN(c3ccc(C(=O)N4CC[C@@H](CN5CCN(c6ccc7c(c6)C(=O)N(C6CCC(=O)NC6=O)C7=O)CC5)C4)cc3)CC2)CN1c1ccc(C#N)c(Cl)c1 (stereo partly shown) [compound 448]

>  <category.label>
class 0

$$$$
>  <compound>
C[C@H]1CC2(CCN(c3cnc(C(=O)N4CCC(N5CCN(c6ccc7c(c6)C(=O)N(C6CCC(=O)NC6=O)C7=O)CC5)CC4)cn3)CC2)CN1c1ccc(C#N)c(Cl)c1 (stereo partly shown) [Cpd. No. 497]

>  <category.label>
class 1

$$$$
>  <compound>
C[C@H]1CC2(CCN(c3ccc(C(=O)N4CCN(C5CN(c6ccc7c(c6)CN(C6CCC(=O)NC6=O)C7=O)C5)CC4)cc3)CC2)CN1c1ccc(C#N)c(Cl)c1 (stereo partly shown) [Cpd. No. 346]

>  <category.label>
class 1

$$$$
>  <compound>
C[C@H]1CC2(CCN(c3cnc(C(=O)N4CCN(CC5CCN(c6ccc7c(c6)C(=O)N(C6CCC(=O)NC6=O)C7=O)CC5)CC4)cn3)CC2)CN1c1ccc(C#N)c(Cl)c1 (stereo partly shown) [Cpd. No. 494]

>  <category.label>
class 0

$$$$
>  <compound>
C[C@H]1CC2(CCN(c3cnc(C(=O)N4CCC(CN5Cc6cc7c(cc6C5)C(=O)N(C5CCC(=O)NC5=O)C7=O)CC4)cn3)CC2)CN1c1ccc(C#N)c(Cl)c1 (stereo partly shown) [Cpd. No. 495]

>  <category.label>
class 2

$$$$

###

# assay.comment: Mouse PK studies after oral and IV dosing
# Type: in vivo
# experimental.parameters: in vivo, po, 3 mg/kg
Cmax values by entry
property: Cmax (ng/mL)

>  <molecule>
C[C@H]1CC2(CCN(c3ccc(C(=O)N4CCC(N5CCN(c6ccc7c(c6)C(=O)N(C6CCC(=O)NC6=O)C7=O)CC5)CC4)cc3F)CC2)CN1c1ccc(C#N)c(Cl)c1 (some centres unmarked)

>  <property>
Cmax

>  <measured.result>
668

$$$$
>  <molecule>
C[C@H]1CC2(CCN(c3ccc(C(=O)N4CCC(N5CCN(c6ccc7c(c6)C(=O)N(C6CCC(=O)NC6=O)C7=O)CC5)CC4)nn3)CC2)CN1c1ccc(C#N)c(Cl)c1 (some centres unmarked)

>  <property>
Cmax

>  <measured.result>
404

$$$$
>  <molecule>
C[C@H]1CC2(CCN(c3cnc(C(=O)N4CCC(N5CCN(c6cc7c(cc6F)C(=O)N(C6CCC(=O)NC6=O)C7=O)CC5)CC4)cn3)CC2)CN1c1ccc(C#N)c(Cl)c1 (some centres unmarked)

>  <property>
Cmax

>  <measured.result>
191

$$$$
>  <molecule>
C[C@H]1CC2(CCN(c3ccc(C(=O)N4CCC(CN5CCN(c6cc7c(cc6F)C(=O)N(C6CCC(=O)NC6=O)C7=O)CC5)CC4)nn3)CC2)CN1c1ccc(C#N)c(Cl)c1 (some centres unmarked)

>  <property>
Cmax

>  <measured.result>
639

$$$$
>  <molecule>
C[C@H]1CC2(CCN(c3ccc(C(=O)N4CCC(N5CCN(c6cc7c(cc6F)C(=O)N(C6CCC(=O)NC6=O)C7=O)CC5)CC4)nn3)CC2)CN1c1ccc(C#N)c(Cl)c1 (some centres unmarked)

>  <property>
Cmax

>  <measured.result>
711

$$$$

###

# assay.comment: Mouse PK studies after oral and IV dosing
# Format: in vivo
# experimental.parameters: in vivo, po, 3 mg/kg
property: Tmax (h)

>  <compound>
C[C@H]1CC2(CCN(c3cnc(C(=O)N4CCC(CN5Cc6cc7c(cc6C5)C(=O)N(C5CCC(=O)NC5=O)C7=O)CC4)cn3)CC2)CN1c1ccc(C#N)c(Cl)c1 (some centres unmarked) [Cpd. No. 495]

>  <unit.of.measure>
h

>  <measured.result>
0.8

$$$$
>  <compound>
C[C@H]1CC2(CCN(c3cnc(C(=O)N4CCC(N5CCN(c6ccc7c(c6)C(=O)N(C6CCC(=O)NC6=O)C7=O)CC5)CC4)cn3)CC2)CN1c1ccc(C#N)c(Cl)c1 (some centres unmarked) [Cpd. No. 497]

>  <unit.of.measure>
h

>  <measured.result>
0.5

$$$$
>  <compound>
C[C@H]1CC2(CCN(c3ccc(C(=O)N4CCN(C5CN(c6ccc7c(c6)C(=O)N(C6CCC(=O)NC6=O)C7=O)C5)CC4)cc3F)CC2)CN1c1ccc(C#N)c(Cl)c1 (some centres unmarked) [Cpd. No. 510]

>  <unit.of.measure>
h

>  <measured.result>
2.7

$$$$
>  <compound>
C[C@H]1CC2(CCN(c3ccc(C(=O)N4CCN(CC5CN(c6ccc7c(c6)C(=O)N(C6CCC(=O)NC6=O)C7=O)C5)CC4)c(F)c3)CC2)CN1c1ccc(C#N)c(Cl)c1 (some centres unmarked) [Cpd. No. 529]

>  <unit.of.measure>
h

>  <measured.result>
3.3

$$$$
>  <compound>
C[C@H]1CC2(CCN(c3ccc(C(=O)N4CCC(CN5CCN(c6ccc7c(c6)C(=O)N(C6CCC(=O)NC6=O)C7=O)CC5)CC4)nn3)CC2)CN1c1ccc(C#N)c(Cl)c1 (some centres unmarked) [Cpd. No. 489]

>  <unit.of.measure>
h

>  <measured.result>
1

$$$$

###

# assay.comment: Mouse PK studies after oral and IV dosing
# Assay type: in vivo
# experimental.parameters: in vivo, iv, 1 mg/kg, IV, dose 1 mg/kg, read-out: IV VSS
Classify as follows. Reported Vd greater than or equal to 2 L/kg: Fulfilled. Reported Vd below: Not fulfilled.

>  <compound>
C[C@H]1CC2(CCN(c3ccc(C(=O)N4CCC(N5CCN(c6ccc7c(c6)C(=O)N(C6CCC(=O)NC6=O)C7=O)CC5)CC4)nn3)CC2)CN1c1ccc(C#N)c(Cl)c1 (some centres unmarked) [Cpd. No. 499]

>  <category.label>
Not fulfilled

$$$$
>  <compound>
C[C@H]1CC2(CCN(c3ccc(C(=O)N4CCN(C5CCN(c6ccc7c(c6)C(=O)N(C6CCC(=O)NC6=O)C7=O)CC5)CC4)cc3)CC2)CN1c1ccc(C#N)c(Cl)c1 (some centres unmarked) [Cpd. No. 302]

>  <category.label>
Not fulfilled

$$$$
>  <compound>
C[C@H]1CC2(CCN(c3ccc(C(=O)N4CCC(CN5CCN(c6ccc7c(c6)C(=O)N(C6CCC(=O)NC6=O)C7=O)CC5)CC4)nn3)CC2)CN1c1ccc(C#N)c(Cl)c1 (some centres unmarked) [Cpd. No. 489]

>  <category.label>
Fulfilled

$$$$
>  <compound>
C[C@H]1CC2(CCN(c3ccc(C(=O)N4CCN(C5CN(c6ccc7c(c6)CN(C6CCC(=O)NC6=O)C7=O)C5)CC4)cc3)CC2)CN1c1ccc(C#N)c(Cl)c1 (some centres unmarked) [Cpd. No. 346]

>  <category.label>
Fulfilled

$$$$
